# Test Name: growth inhibition, single agents and combos, ICB984, cell-based, cisplatin or BGB combos, synergistic combos for chromothripsis tumors (AID 1671451);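 further: cells exposed for 96 hours before readout; 0% = vehicle DMSO and 100% = killing by high DMSO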
# Assay Conditions: ICB984 medulloblastoma cells, drug combinations, cisplatin combo, at 0.05 µM, stronger effect = higher value
Measured Quantity: inhibition (%)

In [3]: df
Out[3]:
                         structure_as_smiles  measured_quantity  observed_value
 0  CN(C)Cc1c(C(=O)NCCOc2ccc(C(=O)NO)cc2)oc2ccccc12         inhibition            93.4
 1  COc1ccc(-c2nc(N3CCOCC3)c3sc(CN(C)c4ncc(C(=O)NO)cn4)cc3n2)cn1         inhibition             101
 2                    NC(=O)c1nc(F)c[nH]c1=O         inhibition           -4.93
 3                       O=c1[nH]cnc2ccccc12         inhibition           -23.5
 4  Nc1ccccc1NC(=O)c1ccc(CNc2nccc(-c3cccnc3)n2)cc1         inhibition            92.7
 5  COc1cc2ncnc(-n3nc(-c4ccccn4)nc3N)c2cc1OC         inhibition             -18
 6  CN(C)C/C=C/C(=O)Nc1ccc(C(=O)Nc2cccc(Nc3ncc(Cl)c(-c4c[nH]c5ccccc45)n3)c2)cc1         inhibition             102
 7  O=c1[nH]c([C@@H]2CCCN2)nc2c1oc1ccc(Cl)cc12         inhibition           -22.5
 8      O=C(COc1cccc2c(=O)[nH]ccc12)c1ccccc1         inhibition           -14.1
 9     CN(C)CCN1C(=O)c2cccc3cc(N)cc(c23)C1=O         inhibition           -15.5
10  Nc1ccc(-c2ccc3ncc4ccc(=O)n(-c5cccc(C(F)(F)F)c5)c4c3c2)cn1         inhibition            79.9
11  O=C(CCCCCCNC(=O)c1cnc(N(c2ccccc2)c2ccccc2Cl)nc1)NO         inhibition            37.5
12  Cc1cnc(CNC(=O)c2c(=O)c3ccc(N4CCCN(C)CC4)nc3n3c2sc2ccccc23)cn1         inhibition             102

###

# Test Name: viability loss with induced miR-34 in A549 – imaging, A549 dox-inducible miR-34, nuclei and caspase counts, primary screen (AID 1347080)
# Assay Conditions: A549 miR-34 inducible, Hoechst nuclei count, 48 h; cell number ratio, induced over uninduced
Active and inactive are the calls of the source.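 The calls were made as follows: active = compounds whose cell count with miR-34 switched on is under 0.7 times the count with it off; inactive = the rest.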
Possible outcomes: class 1 (active), class 0 (inactive)

>>> df
                                    molecule    class
 0    COc1ccc(/C=C\c2cc(OC)c(OC)c(OC)c2)cc1O  class 0
 1  CCc1ccccc1OC[C@@H](O)CN[C@H]1CCCc2ccccc21  class 0
 2       CCN(CC)CCCCN1c2ccccc2Oc2ccc(Cl)cc21  class 0
 3  Cc1cc(C)cc(NC(=O)Cc2ccc(OC(C)(C)C(=O)O)cc2)c1  class 0
 4  CCCCC[C@H](O)/C=C/[C@H]1[C@H](O)CC(=O)[C@H]1C/C=C\CCCC(=O)OC(C)C  class 0
 5                 Cc1nc2c(O)cccc2c(=O)[nH]1  class 0
 6  OC(CN1CCNCC1)Cn1c2ccc(Br)cc2c2cc(Br)ccc21 (stereo unspecified)  class 0
 7  CCCCC[C@H](O)/C=C/[C@H]1[C@H](O)CC(=O)[C@@H]1CC(=O)CCCCC(=O)O  class 0
 8  CCCCCCCCCCCCCCCCOC[C@H](COP(=O)([O-])OCC[N+]1(C)CCCC1)OC(C)=O  class 0
 9                    CCn1c(=O)[nH]c2ccccc21  class 0
10  CCCCC[C@](C)(O)/C=C/[C@H]1[C@H](O)CC(=O)[C@@H]1C/C=C\CCCC(=O)O  class 0
11  O=C(O)c1ccc(Nc2ncc3c(n2)-c2ccc(Cl)cc2C(c2c(F)cccc2F)=NC3)cc1  class 0
12   CCCCC(=O)NCCc1c(Cc2ccccc2)[nH]c2ccccc12  class 0
13      CCCCCCCCCCCCCCCCCC(=O)N[C@H]1CCOC1=O  class 0
14                  c1ccc2nc(C3=NCCN3)cnc2c1  class 0
15   CCCCC/C=C\C/C=C\C/C=C\CCCC/C=C\CCC(=O)O  class 0
16  C[C@H](CCCO)[C@H]1CC[C@H]2[C@@H]3[C@H](O)C[C@H]4CC(=O)CC[C@]4(C)[C@H]3C[C@H](O)[C@]12C  class 0
17  CCCNC(=O)N1N=C(c2ccc(N)cc2)c2cc3c(cc2C1C)OCO3 (stereo unspecified)  class 0
18  Cn1c2ccccc2c2c3c(c4c5ccccc5n(CCC#N)c4c21)CNC3=O  class 1
19  O=C1c2ccccc2C(Cc2ccncc2)(Cc2ccncc2)c2ccccc21  class 0
20  CCCCC[C@@H](O)/C=C/[C@H]1C[C@H]2C[C@@H]([C@@H]1C/C=C\CCCC(=O)O)C2(C)C  class 0

These entries and their values trace back to PubChem BioAssay.
